Source listed as paper PMC11740726.

Test system: SARS-CoV-2^E166V-P14
Format: cell-based
Condition details: read-out: EC50, SARS-CoV-2^E166V-P14, HeLa^hACE2-TMPRSS2
Parameter: pEC50
Please keep in mind that pEC50 is minus log10 of the molar concentration; only the number is needed.

Exercise: Given the entry CC(C)(C)[C@H](NC(=O)C(F)(F)F)C(=O)N1C[C@H]2[C@@H]([C@H]1C(=O)N[C@H](C#N)C[C@@H]1CCNC1=O)C2(C)C [Nirmatrelvir, reference compound] , report its measured pEC50.
Key: 5.85

----------
Tested on: SARS-CoV-2 Omicron XBB.1.5
Protocol notes: microbe, parasite or virus in culture
Type: cell-based
Condition details: Severe acute respiratory syndrome coronavirus 2, read-out: Against SARS-CoV-2 variants EC50, Omicron XBB.1.5
Assign pEC50 to each entry below.
Please keep in mind that pEC50 is minus log10 of the molar concentration; only the number is needed.

Exercise: Given the entry Cn1cnc(Cn2c(=O)[nH]/c(=N\c3cc4cn(C)nc4cc3Cl)n(Cc3cc(F)c(F)cc3F)c2=O)n1 [Ensitrelvir, reference compound] , report its measured pEC50.
Key: 6.66

Exercise: Given the entry `CC(C)(C)[C@H](NC(=O)C(F)(F)F)C(=O)N1C[C@H]2[C@@H]([C@H]1C(=O)N[C@@H](C[C@@H]1CCNC1=O)C(=O)c1nc3cc(F)ccc3s1)C2(C)C` , report its measured pEC50.
Key: 8.30

Exercise: Given the entry CC(C)(C)[C@H](NC(=O)C(F)(F)F)C(=O)N1C[C@H]2[C@@H]([C@H]1C(=O)N[C@H](C#N)C[C@@H]1CCNC1=O)C2(C)C [Nirmatrelvir, reference compound] , report its measured pEC50.
Key: 6.68

Exercise: Given the entry `CC(C)(C)[C@H](NC(=O)C(F)(F)F)C(=O)N1C[C@H]2[C@@H]([C@H]1C(=O)N[C@@H](C[C@@H]1CCNC1=O)C(=O)c1nc3c(F)cccc3s1)C2(C)C` , report its measured pEC50.
Key: 7.46
